Target: T1, human nectin-4 protein expressed on the surface of cells (human, UniProt Q96NY8 32-510)
T1 sequence: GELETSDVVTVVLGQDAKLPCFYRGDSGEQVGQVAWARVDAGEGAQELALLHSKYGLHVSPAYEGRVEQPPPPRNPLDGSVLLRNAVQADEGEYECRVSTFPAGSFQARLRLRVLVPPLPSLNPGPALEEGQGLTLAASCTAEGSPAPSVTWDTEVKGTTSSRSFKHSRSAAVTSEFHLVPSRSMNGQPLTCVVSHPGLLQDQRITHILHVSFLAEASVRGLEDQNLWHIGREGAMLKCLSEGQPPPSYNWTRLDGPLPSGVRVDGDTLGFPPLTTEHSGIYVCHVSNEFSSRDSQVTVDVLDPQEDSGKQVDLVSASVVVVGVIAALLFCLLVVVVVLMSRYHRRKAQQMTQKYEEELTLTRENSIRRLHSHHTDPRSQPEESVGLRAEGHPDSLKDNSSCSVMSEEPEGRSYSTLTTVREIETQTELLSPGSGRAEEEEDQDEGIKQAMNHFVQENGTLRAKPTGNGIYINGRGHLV
Experiment: cell-based or functional assay
Endpoint Name: Cell kill IC50, HekNectin4 (nM)

- Nectin-4 5D9 VH1/VL3 (antibody, V domains shown, Humanized; also called 5D9 VH variant 1 / 5D9 VL variant 3) VH: QVQLKESGPGLVQPSETLSLTCTVSGFSITNYGVHWIRQSPGKGLEWLGVIWSGGSTDYNAAFVSRVTISRDNSKSQVFFKLNSVQADDTAVYYCARSGKWYYFDYWGQGTTVTVSS VL: DIQMTQSPSSLSASVGDRVTITCRASQSIYSNLAWYQQKPGKAPKLLVYAATNLASGVPSRFSGSGSGTDFTLTISSLQPEDFATYYCQHFWGTPTFGGGTKVEIK: 2.94
- Nectin-4 5D9 VH5/VL4 (antibody, V domains shown, Humanized; also called 5D9 VH variant 5 / 5D9 VL variant 4) VH: QVQLQESGPGLVKPSETLSLTCTVSGGSLTNYGVHWVRQPPGKGLEWIGVIWSGGSTNYNPSLKSRVTISRDTSKNQVSLKLSSVTAADTAVYYCARSGKWYYFDYWGQGTLVTVSS VL: DIQMTQSPSSLSASVGDRVTITCRASENIYSNLAWYQQKPGKAPKLLVYAATNLADGVPSRFSGSGSGTDYTLTISSLQPEDFATYYCQHFWGTPTFGGGTKVEIK: 22.1
- Nectin-4 5D9 VH1/VL2 (antibody, V domains shown, Humanized; also called 5D9 VH variant 1 / 5D9 VL variant 2) VH: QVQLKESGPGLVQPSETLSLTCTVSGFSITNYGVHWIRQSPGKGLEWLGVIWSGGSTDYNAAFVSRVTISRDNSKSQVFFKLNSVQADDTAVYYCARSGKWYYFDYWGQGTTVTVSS VL: DIQMTQSPSSLSASVGDTVTITCRASQNIYSNLAWYQQKQGKAPKLLVYAATNLADGVPSRFSGSGSGTDFTLKINSLQPEDFATYYCQHFWGTPTFGGGTKVEIK: 3.35
